Hi there, I'd appreciate the recorded pIC50 for every entry that follows.
Biological target: HLA-B*5101 (B51) (Homo sapiens, UniProt P01889, A329T/A93T/A95T/C349S/D138N/D201E/D98Y/E187L/E204Q/E69T/G107R/I218V/K202T/L105A/L119W/N104I/Q94N/R106L/R155S/R180L/S101N/S121T/S35A/S48A/V306I/V36M/Y195H/Y91F)
Assay: Purified HLA class I peptide binding assay, B51
Conditions: binding affinity, HLA-B7 supermotif-bearing peptides; read-out: B*5101 nM
Residues, ends and D or L forms follow the SMILES beside them.
Please report pIC50 as the negative decimal logarithm of the molar concentration, giving only the number.

Data request: Could you tell me which pIC50 is on file for `CC[C@H](C)[C@H](NC(=O)[C@H](CC(C)C)NC(=O)[C@H](CC(C)C)NC(=O)CNC(=O)[C@H](C)NC(=O)[C@H](CCCCN)NC(=O)[C@@H]1CCCN1C(=O)[C@@H](N)Cc1ccccc1)C(=O)O` ?
Data returned: 8.09

Data request: Entry CC[C@H](C)[C@H](NC(=O)[C@H](Cc1ccc(O)cc1)NC(=O)[C@H](CC(C)C)NC(=O)[C@H](Cc1c[nH]cn1)NC(=O)CNC(=O)[C@@H](NC(=O)[C@@H]1CCCN1C(=O)[C@@H](N)Cc1ccccc1)[C@@H](C)CC)C(=O)N[C@@H](Cc1ccccc1)C(=O)N[C@@H](C)C(=O)O (H-FPIGHLYIFA-OH; N-terminus and C-terminus assumed) please
Data returned: 7.25

Data request: Entry `CC[C@H](C)[C@H](NC(=O)[C@H](CC(C)C)NC(=O)[C@@H](NC(=O)[C@H](Cc1ccc(O)cc1)NC(=O)[C@H](CC(C)C)NC(=O)[C@H](Cc1c[nH]cn1)NC(=O)[C@H](CO)NC(=O)[C@@H](NC(=O)[C@@H]1CCCN1C(=O)[C@@H](N)Cc1ccccc1)[C@@H](C)CC)[C@@H](C)CC)C(=O)O` please
Data returned: 7.89

Data request: Entry `CC[C@H](C)[C@H](NC(=O)[C@H](CC(C)C)NC(=O)[C@H](CC(C)C)NC(=O)CNC(=O)[C@@H](NC(=O)[C@H](CCCCN)NC(=O)[C@@H]1CCCN1C(=O)[C@@H](N)Cc1ccccc1)[C@@H](C)O)C(=O)O` please
Data returned: 7.80

Data request: Entry `CC[C@H](C)[C@H](NC(=O)[C@@H](NC(=O)[C@H](Cc1ccc(O)cc1)NC(=O)[C@H](CC(C)C)NC(=O)[C@H](Cc1c[nH]cn1)NC(=O)[C@H](CO)NC(=O)[C@@H](NC(=O)[C@@H]1CCCN1C(=O)[C@@H](N)Cc1ccccc1)[C@@H](C)CC)[C@@H](C)CC)C(=O)O` please
Data returned: 8.38

Data request: Entry `CC[C@H](C)[C@H](NC(=O)[C@@H](NC(=O)[C@@H](NC(=O)[C@H](CC(C)C)NC(=O)[C@H](CC(C)C)NC(=O)CNC(=O)[C@H](C)NC(=O)[C@H](CCCCN)NC(=O)[C@@H]1CCCN1C(=O)[C@@H](N)Cc1ccccc1)[C@@H](C)CC)[C@@H](C)CC)C(=O)O` please
Data returned: 7.19

Data request: Entry CC[C@H](C)[C@H](NC(=O)[C@H](Cc1ccc(O)cc1)NC(=O)[C@H](CO)NC(=O)[C@@H](NC(=O)[C@H](CCC(=O)O)NC(=O)[C@@H](NC(=O)[C@H](CC(C)C)NC(=O)[C@H](C)NC(=O)[C@H](CCCNC(=N)N)NC(=O)[C@@H]1CCCN1C(=O)[C@@H](N)Cc1ccccc1)[C@@H](C)CC)[C@@H](C)O)C(=O)O (H-FPRALIETSYI-OH; N-terminus and C-terminus assumed) please
Data returned: 7.15
